GI50 reference
Test system: RPMI-8226 leukemia
Assay: NCI tumour cell line growth inhibition, 48 h
outcome measure: GI50

>>> val("C=CC(=O)N1CCN(c2ccc3cccc(NC(=O)c4cnc(C)cn4)c3n2)CC1")
"1.5 µM"
>>> val("CC(=O)OCC(OC(C)=O)C(OC(C)=O)C(C=NN(C(C)=O)S(=O)(=O)c1ccc(/C=C2\\NC(=O)NC2=O)cc1)OC(C)=O (stereo not given)")
"> 100 µM"
>>> val("CN(C)CCCN1c2ccccc2CCc2ccc(Cl)cc21")
"2.62 µM"
>>> val("COc1cc2c(cc1OCCCCOc1cc3c(cc1OC)C(=O)N1CCC[C@H]1CN3)N=C[C@@H]1CCCN1C2=O")
"0.575 µM"
>>> val("Cc1cc2c3ccc(C)[n+](C)c3ccc2n1C")
"1.32 µM"

###

TGI reference
Test system: NCI-H23 lung
Test: NCI tumour cell line growth inhibition, 48 h
outcome measure: TGI

>>> val("C=CC(=O)N1CCN(c2ccc3cccc(NC(=O)c4cnc(C)cn4)c3n2)CC1")
"19.5 µM"
>>> val("O=C1C=C(Br)c2c(-c3ccccc3)oc3cccc1c23")
"> 100 µM"
>>> val("Cn1c2c(cc(S(=O)(=O)c3ccccc3)c1=O)CCc1c-2cnn1-c1ccc(Cl)cc1")
"> 100 µM"
>>> val("Cc1ccc(/C=N/Nc2cnccn2)s1")
"> 100 µM"
>>> val("COc1cc2c(c(OC)c1OC)C(=O)[C@H](O)[C@H]2NC(N)=O")
"> 100 µM"
>>> val("O=C(NCCCCCCCCNC(=O)c1cc(-c2ccccc2)nc2ccccc12)c1cc(-c2ccccc2)nc2ccccc12")
"> 100 µM"
>>> val("Cc1cc(=O)[nH]c(NN2C(Cl)C(=O)C2c2ccc(Cl)cc2)n1 (centres undefined)")
"39.1 µM"
>>> val("CCO[C@]12C[C@H](OC)[C@@]3(O)CC(C1[C@H]3OCc1ccccc1)C13C4C2[C@H](OC)C1[C@](COC)(CN4CC)[C@H](O)C[C@@H]3OC (some centres undefined)")
"> 100 µM"
>>> val("COc1ccc(-c2n[nH]nc2-c2cc(OC)c3c(c2OC)OCO3)cc1")
"26.5 µM"

###

Tested on: HCC-2998 colon
Assay: NCI tumour cell line growth inhibition, 48 h
outcome measure: TGI

>>> val("O=C1C(=O)N(c2ccc(Cl)c(Cl)c2)C(=O)C(=O)C1c1nc2ccccc2s1")
"> 100 µM"
>>> val("O=C(NCc1cccnc1)NCc1cccnc1")
"> 100 µM"
>>> val("CSCC1CC(c2ccc(Cl)cc2)=NO1 (stereo not given)")
"> 100 µM"
>>> val("NCCCN(CCCCN(CCCN)Cc1ccc2ccccc2c1)Cc1ccc2ccccc2c1")
"9.37 µM"
>>> val("O=[N+]([O-])c1cccc(-c2nc3sccn3c2-c2ccnc(NCCCNS(=O)(=O)c3cccc(F)c3)n2)c1")
"> 100 µM"
>>> val("CCC1CN2CCc3cc(OC)c(OC)cc3C2CC1CC1c2cc(OC)c(OC)cc2CCN1C(=O)C1CCCN1C(=O)OCc1ccccc1 (stereo not given)")
"30 µM"
>>> val("CCOC(=O)C(C)(c1cn(C)c2ccccc12)c1cn(C)c2ccccc12")
"> 100 µM"
>>> val("Cc1n[nH]c(=O)c2cc(-c3ccccc3)[nH]c12")
"> 100 µM"
>>> val("O=C1C=C(Br)c2c(-c3ccccc3)oc3cccc1c23")
"> 100 µM"
>>> val("CNC(=O)N1CN(c2ccccc2)C2(CCN(CCCC(=O)c3ccc(F)cc3)CC2)C1=O")
"22.2 µM"

Reference for the values: PubChem BioAssay (NCI)
